microsomal CLint at 1 h, 1 µM: recorded values
- assay: in vitro
- stated_conditions: mouse, liver microsomes
Return type: number; implicit unit µL/min/mg.

Past entries and their recorded results:
{"compound": "O=C(O)CC1Cc2ccc(-c3cc(F)cc(OC(F)F)c3)cc2N1S(=O)(=O)c1cccc(C(F)(F)F)c1 (racemic)", "numeric_result": 12.3}
{"compound": "O=S(=O)(c1cccc(C(F)(F)F)c1)N1CCc2ccc(-c3cc(F)cc(OC(F)F)c3)cc21", "numeric_result": 121}

For the next question, use this compound.
Given item `O=S(=O)(c1cccc(C(F)(F)F)c1)N1CCc2ccc(OCc3c(F)cccc3Cl)cc21` , the value recorded as its microsomal CLint at 1 h, 1 µM is 482

====

- system_under_test: UniProt P51449
- Sequence (P51449 whole entry): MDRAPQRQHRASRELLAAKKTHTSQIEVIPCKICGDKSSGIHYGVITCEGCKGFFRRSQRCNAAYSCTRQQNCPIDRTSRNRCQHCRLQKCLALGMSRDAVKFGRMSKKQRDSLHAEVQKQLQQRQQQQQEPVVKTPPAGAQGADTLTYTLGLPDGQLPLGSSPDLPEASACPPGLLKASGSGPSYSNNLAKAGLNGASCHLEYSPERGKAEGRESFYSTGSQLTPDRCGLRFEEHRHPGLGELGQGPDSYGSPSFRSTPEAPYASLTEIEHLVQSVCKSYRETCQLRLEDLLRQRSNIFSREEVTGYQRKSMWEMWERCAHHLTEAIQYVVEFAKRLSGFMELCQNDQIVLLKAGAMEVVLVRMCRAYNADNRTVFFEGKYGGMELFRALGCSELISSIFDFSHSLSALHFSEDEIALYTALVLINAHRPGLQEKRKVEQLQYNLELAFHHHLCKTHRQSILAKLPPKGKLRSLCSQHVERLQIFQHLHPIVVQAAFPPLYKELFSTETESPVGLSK
- assay: Agonist activity at APC-labeled biotinylated RORgammaT LBD (unknown origin) assessed as induction of biotinylated SRC-1 peptide recruitment incubated for 1 hr by dual FRET assay
endpoint: pEC50
pEC50 is a log-scale quantity: -log10 of the concentration expressed in molar.

{"molecule": "O=C(O)CCCC1Cc2ccc(-c3cc(F)cc(OC(F)F)c3)cc2N1S(=O)(=O)c1cccc(C(F)(F)F)c1 (stereo not drawn)", "numeric_result": 7.60}
{"molecule": "O=C(O)C1CN(C(=O)CC2Cc3ccc(-c4cc(F)cc(OC(F)F)c4)cc3N2S(=O)(=O)c2cccc(C(F)(F)F)c2)C1 (stereo not drawn)", "numeric_result": 7.31}
{"molecule": "O=S(=O)(c1cccc(C(F)(F)F)c1)N1CCc2ccc(OCc3c(F)cccc3Cl)cc21", "numeric_result": 7.52}
{"molecule": "O=C1CCN(C(=O)CC2Cc3ccc(-c4cc(F)cc(OC(F)F)c4)cc3N2S(=O)(=O)c2cccc(C(F)(F)F)c2)CC1 (stereo not drawn)", "numeric_result": 7.09}
{"molecule": "O=C(O)CCCc1cc2ccc(-c3cc(F)cc(OC(F)F)c3)cc2n1S(=O)(=O)c1cccc(C(F)(F)F)c1", "numeric_result": 7.34}
{"molecule": "O=C(CC1Cc2ccc(-c3cc(F)cc(OC(F)F)c3)cc2N1S(=O)(=O)c1cccc(C(F)(F)F)c1)N1CC(O)C1 (stereo not drawn)", "numeric_result": 6.61}
{"molecule": "O=C(O)CCCc1cn(S(=O)(=O)c2cccc(C(F)(F)F)c2)c2cc(-c3cc(F)cc(OC(F)F)c3)ccc12", "numeric_result": 7.03}

Given item O=C1CN(C(=O)CC2Cc3ccc(-c4cc(F)cc(OC(F)F)c4)cc3N2S(=O)(=O)c2cccc(C(F)(F)F)c2)C1 (stereo not drawn) , the value recorded as its pEC50 is 7.10

====

- assay: AUC (0 to last) in CD-1 mouse at 1 mg/kg, iv measured for 24 hrs by LC-MS/MS analysis
- Assay type: ADME, organism-based
- Parameters: dose 1 mg/kg, route intravenous, time 0 - last
- stated_conditions: in vivo
endpoint: AUC(0-t) at 24 h
The answer should read as a number with its unit following.

Given item O=C(O)CC1Cc2ccc(-c3cc(F)cc(OC(F)F)c3)cc2N1S(=O)(=O)c1cccc(C(F)(F)F)c1 (racemic) , the value recorded as its AUC(0-t) at 24 h is 1710 ng·h/mL

====

log10 of EC50: recorded values
- system_under_test: Nuclear receptor ROR-gamma (Homo sapiens, UniProt P51449)
- assay: Agonist activity at APC-labeled biotinylated RORgammaT LBD (unknown origin) assessed as induction of biotinylated SRC-1 peptide recruitment incubated for 1 hr by dual FRET assay
Quick note: numbers are log10 of EC50, with nM as the unit.

Past entries and their recorded results:
{"compound": "O=C(O)Cc1cc2ccc(-c3cc(F)cc(OC(F)F)c3)cc2n1S(=O)(=O)c1cccc(C(F)(F)F)c1", "log10 of EC50": 2.10}
{"compound": "O=C(O)CC1Cc2ccc(-c3cc(F)cc(F)c3)cc2N1S(=O)(=O)c1cccc(C(F)(F)F)c1 (configuration not stated)", "log10 of EC50": 1.41}
{"compound": "COc1cc(F)cc(-c2ccc3c(c2)N(S(=O)(=O)c2cccc(C(F)(F)F)c2)C(CC(=O)O)C3)c1 (configuration not stated)", "log10 of EC50": 1.59}
{"compound": "O=C(O)CCCC1CN(S(=O)(=O)c2cccc(C(F)(F)F)c2)c2cc(-c3cc(F)cc(OC(F)F)c3)ccc21 (configuration not stated)", "log10 of EC50": 1.42}

Given item `O=C(O)CCc1cn(S(=O)(=O)c2cccc(C(F)(F)F)c2)c2cc(-c3cc(F)cc(OC(F)F)c3)ccc12` , the value recorded as its log10 of EC50 is 1.64

Given item `O=C(O)c1cc2ccc(-c3cc(F)cc(OC(F)F)c3)cc2n1S(=O)(=O)c1cccc(C(F)(F)F)c1` , the value recorded as its log10 of EC50 is 1.87

Given item `O=S(=O)(c1cccc(C(F)(F)F)c1)n1cnc2ccc(-c3cc(F)cc(OC(F)F)c3)cc21` , the value recorded as its log10 of EC50 is 2.09

Given item O=C(O)C1CCN(C(=O)CC2Cc3ccc(-c4cc(F)cc(OC(F)F)c4)cc3N2S(=O)(=O)c2cccc(C(F)(F)F)c2)CC1 (configuration not stated) , the value recorded as its log10 of EC50 is 1.76

Given item `O=S(=O)(c1cccc(C(F)(F)F)c1)n1ncc2ccc(-c3cc(F)cc(OC(F)F)c3)cc21` , the value recorded as its log10 of EC50 is 2.31

Given item O=C(O)CC1Cc2ccc(-c3ccc4c(c3)OCO4)cc2N1S(=O)(=O)c1cccc(C(F)(F)F)c1 (configuration not stated) , the value recorded as its log10 of EC50 is 1.94

Given item O=C(CC1Cc2ccc(-c3cc(F)cc(OC(F)F)c3)cc2N1S(=O)(=O)c1cccc(C(F)(F)F)c1)N1CCC(O)CC1 (configuration not stated) , the value recorded as its log10 of EC50 is 2.03

Given item `O=S(=O)(c1cccc(C(F)(F)F)c1)n1ccc2ccc(-c3cc(F)cc(OC(F)F)c3)cc21` , the value recorded as its log10 of EC50 is 2.00

====

- system_under_test: Nuclear receptor ROR-gamma (Homo sapiens, UniProt P51449)
- Sequence (P51449 whole entry): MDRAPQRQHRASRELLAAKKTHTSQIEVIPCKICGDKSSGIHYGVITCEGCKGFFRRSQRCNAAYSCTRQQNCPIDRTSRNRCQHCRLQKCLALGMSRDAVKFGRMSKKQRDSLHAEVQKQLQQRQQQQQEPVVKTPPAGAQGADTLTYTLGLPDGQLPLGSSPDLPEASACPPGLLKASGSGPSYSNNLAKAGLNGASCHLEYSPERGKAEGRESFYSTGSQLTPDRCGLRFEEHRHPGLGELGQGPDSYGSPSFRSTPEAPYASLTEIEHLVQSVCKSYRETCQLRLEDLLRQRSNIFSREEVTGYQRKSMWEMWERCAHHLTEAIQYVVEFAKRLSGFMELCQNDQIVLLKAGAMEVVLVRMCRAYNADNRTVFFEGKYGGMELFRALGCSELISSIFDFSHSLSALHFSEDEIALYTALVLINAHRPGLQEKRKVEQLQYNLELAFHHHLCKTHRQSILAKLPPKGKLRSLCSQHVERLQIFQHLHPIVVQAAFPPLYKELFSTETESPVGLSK
- assay: Agonist activity at APC-labeled biotinylated RORgammaT LBD (unknown origin) assessed as induction of biotinylated SRC-1 peptide recruitment incubated for 1 hr by dual FRET assay
endpoint: pEC50
pEC50 is a log-scale quantity: -log10 of the concentration expressed in molar.

{"compound": "O=S(=O)(c1cccc(C(F)(F)F)c1)N1CCc2ccc(-c3cc(F)cc(OC(F)F)c3)cc21", "system_under_test": "Nuclear receptor ROR-gamma (Homo sapiens, UniProt P51449)", "numeric_result": 7.30}
{"compound": "O=C(CC1Cc2ccc(-c3cc(F)cc(OC(F)F)c3)cc2N1S(=O)(=O)c1cccc(C(F)(F)F)c1)N1CCS(=O)(=O)CC1 (stereo not given)", "system_under_test": "Nuclear receptor ROR-gamma (Homo sapiens, UniProt P51449)", "numeric_result": 7.36}

So the reported pEC50 for `O=C(O)C[C@H]1Cc2ccc(-c3cc(F)cc(OC(F)F)c3)cc2N1S(=O)(=O)c1cccc(C(F)(F)F)c1` , on Nuclear receptor ROR-gamma (Homo sapiens, UniProt P51449), turned out to be 6.54

So the reported pEC50 for O=C(CC1Cc2ccc(-c3cc(F)cc(OC(F)F)c3)cc2N1S(=O)(=O)c1cccc(C(F)(F)F)c1)N1CCOCC1 (stereo not given) , on Nuclear receptor ROR-gamma (Homo sapiens, UniProt P51449), turned out to be 6.68

So the reported pEC50 for O=C(O)CCC1CN(S(=O)(=O)c2cccc(C(F)(F)F)c2)c2cc(-c3cc(F)cc(OC(F)F)c3)ccc21 (stereo not given) , on Nuclear receptor ROR-gamma (Homo sapiens, UniProt P51449), turned out to be 7.84
